Assay: Chemical stability of the compound assessed as half life
Format: physicochemical
outcome measure: half-life (h)
Please respond with the number in h and leave the unit unwritten.

[[record]]
compound = "O=C1c2cccc3c2[C@H](CCC3)CN1[C@@H]1CN2CCC1CC2"
outcome_measure = "half-life"
numeric_result = 38


Exercise: Give its half-life value. Item: CN1C2CCCC1CC(NC(=O)c1nn(C)c3ccccc13)C2 (configuration not stated)
Key: 5
